These measurements were taken from patent US20180249717A1.

In this section, each of the molecules is paired with its reported Inhibition of allergenicity, Dermatophagoides farina.
System: Dermatophagoides farina house dust mite proteins
assay_explanation: Dot-blot immunoassay for human-specific IgE reactivity (inhibition of allergenicity)
Type: binding
Parameters: unit not given here
condition_summary: compounds, 500 μg each; allergic patient's serum IgE
readout: Inhibition of allergenicity, Dermatophagoides farina

molecule | measurement_target | value_measured
CC(C)=CCCC(C)CCO (stereo not drawn) | Dermatophagoides farina house dust mite proteins | 61.2
CC(C)=CCC/C(C)=C/C=O | Dermatophagoides farina house dust mite proteins | 72.6
C=CCc1cc(OC)c2c(c1)OCO2 | Dermatophagoides farina house dust mite proteins | 76.3
C=CC(C)(O)CCC=C(C)CCC=C(C)C (stereo not drawn) | Dermatophagoides farina house dust mite proteins | 42.3
C=C(C)C1CC=C(C=O)CC1 (stereo not drawn) | Dermatophagoides farina house dust mite proteins | 79.1
C/C=C\c1cc(OC)c(OC)cc1OC | Dermatophagoides farina house dust mite proteins | 64.9
C=CCN=C=S [Allyl isothiocyanate] | Dermatophagoides farina house dust mite proteins | 82.1
CC(C)c1ccccc1 | Dermatophagoides farina house dust mite proteins | 60.9
CC(C)c1ccc(C=O)cc1 | Dermatophagoides farina house dust mite proteins | 80.4
CC(C)=CCC/C(C)=C\C=O | Dermatophagoides farina house dust mite proteins | 77.2
CC1=CCC2C(C1)C2(C)C (stereo not drawn) | Dermatophagoides farina house dust mite proteins | 77.9
C=C(C)[C@@H]1CC[C@@H](C)C[C@H]1O | Dermatophagoides farina house dust mite proteins | 76.5
